All figures here come from ChEMBL document CHEMBL1147195.

assay: Inhibition of CDK1/cyclinB; parameters: species or system Homo sapiens
pKi: −log10 of the molar value.
Use 7 as the dividing line for pKi, with the line itself on the MET side and lower values as NOT MET.

> print(dat)
                           smiles.structure    class
1     CCCCNC1=NC(=O)/C(=C/c2ccc3ncccc3c2)S1  NOT MET
2  O=C1N=C(NCCc2cccc(F)c2)S/C1=C\c1ccc2ncccc2c1      MET
3  O=C1N=C(NCCc2ccc(Br)cc2)S/C1=C\c1ccc2ncccc2c1  NOT MET
4        CNC1=NC(=O)/C(=C/c2ccc3ncccc3c2)S1  NOT MET

---

target: Cyclin-dependent kinase 4 (Homo sapiens)
Sequence (P11802 whole entry): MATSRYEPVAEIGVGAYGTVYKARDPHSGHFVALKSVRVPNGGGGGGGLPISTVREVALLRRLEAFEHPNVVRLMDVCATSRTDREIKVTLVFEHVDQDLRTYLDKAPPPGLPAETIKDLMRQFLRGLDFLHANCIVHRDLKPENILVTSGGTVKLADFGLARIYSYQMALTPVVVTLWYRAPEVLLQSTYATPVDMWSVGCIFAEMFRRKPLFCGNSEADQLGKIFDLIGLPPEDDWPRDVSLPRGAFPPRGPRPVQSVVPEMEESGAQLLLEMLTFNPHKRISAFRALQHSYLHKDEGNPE
pKi: −log10 of the molar value.
readout-label: pKi

> print(dat)
                           smiles.structure  reported.value
1  O=C1N=C(N[C@@H]2C[C@H]2c2ccccc2)S/C1=C\c1ccc2ncccc2c1          < 5.70
2         NC1=NC(=O)/C(=C/c2ccc3ncccc3c2)S1          < 5.70
